SYSTEM UNDER TEST: T1, CD27 expressed on the cell surface (HT1080_CD27 cells) (human, UniProt P26842 20-260); also: test concentration or dose not given here
T1 sequence (looked up): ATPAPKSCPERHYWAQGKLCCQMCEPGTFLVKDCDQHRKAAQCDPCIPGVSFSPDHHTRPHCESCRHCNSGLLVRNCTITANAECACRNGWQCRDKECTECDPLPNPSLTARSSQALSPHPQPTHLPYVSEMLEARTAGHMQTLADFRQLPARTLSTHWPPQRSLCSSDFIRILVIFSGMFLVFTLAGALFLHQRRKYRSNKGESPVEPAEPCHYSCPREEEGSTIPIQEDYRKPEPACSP
ASSAY DETAILS: cell-based or functional assay
RECORDED ENDPOINT: IL-8, cross-linked by F(ab')2 fragment [abs. corr.] (abs. corr.)
Write down the numeric answer in abs. corr. and omit the unit.

Reference set (2 entries):
- BINDER: "P018.S.01.A.C02 (antibody, V domains shown, V regions on human Ig constant parts; also called AB27_7) VH: QSLEESGGDLVQPGASLTLTCTASGLDFISSYMCWVRQAPGKGLEWIGCIAPGGGNTYYATWAKGRFTFSETSSTTVTLQMTSLTAADTATYFCARTYPSIWYFGLWGPGTLVTVSS VL: DVVMTQTPASVSEPVGGTVTIKCQASQSIGSNLGWYQQKPGQPPKLLIYGASTLASGVSSRFKGSGSGTEFTLTMSDLESADAATYYCQSFYAASSAFGGGTEVVVK"
  VAL: 1.48
- BINDER: "P018.S.03.A.C05 (antibody, V domains shown, V regions on human Ig constant parts; also called AB27_46) VH: QSLEESGGGLVQPGGTLTLTCKASGIDFSSSFYMCWVRQAPGKGLERIACTYNRDGSTYYASWAKGRFTISKTSSTTVTLQMASLTVADTATYFCARDDGYPGSGYVFNLWGPGTLVTVSS VL: DVVMTQTPASVEAAVGGTVTIKCQASQSVSSYLSWYQQKPGQRPKLLIYGASNLESGVPSRFKGSGSGTEFTLTISGVQSDDAATYYCQGGYYSSGADNNSFGGGTELVVK"
  VAL: 1.63

Turning now to a further record.
Query: May I ask what IL-8, cross-linked by F(ab')2 fragment [abs. corr.] has been recorded for P018.S.05.A.E04 (antibody, V domains shown, V regions on human Ig constant parts; also called AB27_90) VH: QEQLEESGGDLVKPEGSLTLTCTASGFSFSSYWICWVRQAPGKGLEWIACIATHSGTDFYASWAKGRFTISKTSSTTVTLQMTSLTAADTATYFCARDPYGFNGDYFSLWGPGTLVTVSS VL: ALVMTQTPASVSAAVGGTVTINCQASQSVYNSNYLSWYQQKPGQPPKLLIYKASTLASGVPSRFKGSGSGTQFTLTISGVESDDAATYYCAGYKSYTNDDNGFGGGTEVVVK ?
Reply: 1.33
